Biological target: thrombin mutant K235A (Homo sapiens, UniProt P00734, K610A)
Construct: a group of thrombin mutants containing replacement of either Arg or Lys present in exosite 2 to Ala
Experiment: Inhibition of thrombin mutant K235A
Details: pH 7.4, 25 °C
Experimental: Chromogenic substrate hydrolysis assay was used to measure potency of inhibition, as previously reported. The assay was performed using Flexstation III (Molecular Devices, Sunnyvale, CA) by monitoring substrate hydrolysis at 405 nm. […]
value.type: IC50 (nM)

| compound | unit.of.measure | data.value |
| --- | --- | --- |
| O=c1oc2cc(OCCCCn3cc(COc4ccc(-c5c(-c6ccccc6)c6cc(Cl)cc(Cl)c6oc5=O)cc4)nn3)ccc2c(-c2ccccc2)c1-c1ccc(OS(=O)(=O)O)cc1 [3g] | nM | 471 |

Taken from paper PMC4823711.
